System: right ventricular papillary muscle
Assay: in vitro inotropic activity (isolated right ventricular papillary muscle)
Assay type: cell-based, guinea-pig
Conditions: Cavia porcellus; 75% increase in basal contractile force (Fc); carazolol 5×10^-8 M present; 34° C.; cumulative additions; read-out: Potency for 75% increase Fc lying within the range
Where a name gives a salt, the structure may show the parent alone.
Measured EC75 by item
measured.quantity: EC75

>>> df
                                   compound  measured_quantity    assay_result
0  COc1ccc(-c2nc3cnccc3[nH]2)cc1SC [Example 34, dihydrochloride]               EC75  100 to 1000 µM
1  COc1ccc(-c2nc3cnccc3[nH]2)c(OC)c1 [Example 1]               EC75  100 to 1000 µM
2  COc1ccc(-c2nc3cnccc3[nH]2)c([S+](C)[O-])c1 (centres unmarked) [Example 22, hydrochloride]               EC75       > 1000 µM
3  COc1cc([S+](C)[O-])ccc1-c1nc2cnccc2[nH]1 (centres unmarked) [Example 21]               EC75  100 to 1000 µM
4  CSc1ccccc1-c1nc2cnccc2[nH]1 [Example 29, hydrochloride]               EC75  100 to 1000 µM
